# Target Under Test: T1, cCEACAM5, M. fascicularis CEACAM5 ECD (35-688) (Macaca fascicularis)
# T1 construct: ECD followed by a 24 amino acid extension containing a His-Tag; also called cynomolgus CEACAM5; monkey CEACAM5
# T1 chain: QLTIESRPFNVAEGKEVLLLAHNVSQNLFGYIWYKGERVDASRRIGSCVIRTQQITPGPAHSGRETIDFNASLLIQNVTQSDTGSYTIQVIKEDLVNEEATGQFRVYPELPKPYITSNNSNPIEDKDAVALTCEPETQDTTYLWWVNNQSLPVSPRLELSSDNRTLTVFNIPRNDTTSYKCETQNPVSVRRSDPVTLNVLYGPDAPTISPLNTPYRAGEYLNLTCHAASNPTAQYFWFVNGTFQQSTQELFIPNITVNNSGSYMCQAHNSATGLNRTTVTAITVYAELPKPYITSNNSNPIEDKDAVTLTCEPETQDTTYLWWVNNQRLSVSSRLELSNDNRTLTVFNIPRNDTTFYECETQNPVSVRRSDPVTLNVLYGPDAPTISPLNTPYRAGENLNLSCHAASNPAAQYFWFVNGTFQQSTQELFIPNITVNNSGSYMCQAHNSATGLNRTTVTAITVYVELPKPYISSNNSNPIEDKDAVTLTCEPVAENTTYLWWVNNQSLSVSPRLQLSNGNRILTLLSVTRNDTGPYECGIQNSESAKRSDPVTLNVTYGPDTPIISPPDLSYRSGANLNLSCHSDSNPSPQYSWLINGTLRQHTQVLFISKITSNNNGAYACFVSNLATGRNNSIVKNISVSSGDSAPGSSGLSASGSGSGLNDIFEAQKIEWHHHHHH
# Method Summary: ELISA, chimeric mAb
Quantity Name: EC50 (pM)
// note: answer is a bare numeric in pM

Form: binder = chMAb1 (antibody, human IgG1, kappa, V domains shown, Chimeric, human IgG1 / Ckappa) VH: EVMLVESGGGLVKPGGSLKLSCAASGFTFSSYAMSWVRQTPEKRLEWVATISSGGSYIYYLDSVKGRFTISRDNAKNTLYLQMSSLRSEDTAMYYCARPAYYGNPAMDYWGQGTSVTVSS VL: DILMTQSQKFMSTSVGDRVSVTCKASQNVGTNVAWYQQKPGQSPKPLIYSASYRYSGVPDRFTGSGSGTDFTLTISNVQSEDLAEYFCQQYNSYPLYTFGGGTKLEIKR ; EC50 = 1570

Form: binder = chMAb4 (antibody, human IgG1, kappa, V domains shown, Chimeric, human IgG1 / Ckappa) VH: EVQLVESGGGLVKPGGSLKLSCAASGFTFSSYDMSWVRQTPEKRLEWVAFISSYGGRTYYADTVKGRFTISRDNAKNTLYLQMSSLKSEDTAMFYCAAHYFGTSGPFAYWGQGTLVTVSA VL: DIQMTQSPASLSASVGETVTITCRASENIYSYFAWYQQKQGKSPQLLVYNAKILAEGVPSRFSGSGSGTQFSLKINSLQPEDFGTYYCQHHYGIPFTFGSGTKLELKR ; EC50 = 120

Form: binder = chMab2K52R (antibody, human IgG1, kappa, V domains shown, Chimeric MAb2 with K52R in CDR2-L) VH: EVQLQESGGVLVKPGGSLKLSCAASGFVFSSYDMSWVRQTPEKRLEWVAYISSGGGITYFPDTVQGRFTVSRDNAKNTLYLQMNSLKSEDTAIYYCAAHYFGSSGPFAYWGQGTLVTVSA VL: DIQMTQSPASLSASVGETVTITCRASENIFSYLAWYQQKQGKSPQLLVYNTRTLAEGVPSRFSGSGSGTQFSLKINSLQPEDFGSYYCQHHYGTPFTFGSGTKLEIKR ; EC50 = 150
